- Test system: L929 cells
- test: Unspecific cytotoxicity assay on L929 fibroblasts (resazurin)
- Format: cell-based
- test_settings: mouse, mean ± SD, n = 3
Mark yes (1) only when CC50 at 72 h stays strictly below 30 µM. Values equal to the cut-off are no (0).

molecule | cat
NNC(=S)Nc1ccc([N+](=O)[O-])cc1 | yes (1)

Here's an entry: `O=[N+]([O-])c1ccc(/C=N/NC(=S)Nc2ccc([N+](=O)[O-])cc2)cc1` . Is its CC50 at 72 h below 30 µM? no (0)

Does the reported CC50 at 72 h of the following molecule sit strictly below 30 µM? `O=[N+]([O-])c1ccccc1NC(=S)N/N=C/c1ccc(O)cc1` no (0)

# check: CC50 at 72 h < 30 µM for `O=[N+]([O-])c1cccc(NC(=S)N/N=C/c2ccc(O)cc2)c1` yes (1)

###

Catalogue of pIC50 values
- System: Trypanosoma cruzi CL-B5 (DTU TcVI) epimastigotes
- test: CL-B5 lacZ epimastigote susceptibility assay (CPRG)
- Assay type: cell-based
- test_settings: Trypanosoma cruzi; T. cruzi CL-B5 lacZ epimastigotes, 72 h, mean ± SD, n = 3
pIC50 (log units): -log10 of the concentration in mol/L.

smiles_notation | tested_system | pIC50
O=[N+]([O-])c1ccccc1NC(=S)N/N=C/c1ccc(O)cc1 | Trypanosoma cruzi CL-B5 (DTU TcVI) epimastigotes | 4.66
COc1ccc(/C=N/NC(=S)Nc2cccc([N+](=O)[O-])c2)cc1 | Trypanosoma cruzi CL-B5 (DTU TcVI) epimastigotes | 4.64
O=[N+]([O-])c1ccccc1NC(=S)N/N=C/c1ccc(O)c(O)c1 | Trypanosoma cruzi CL-B5 (DTU TcVI) epimastigotes | 4.38

Data request, read-out pIC50, for `Oc1ccc(/C=N/NC(=S)Nc2ccc(Br)cc2)cc1` 4.37

What value of measured pIC50 is listed for `Cc1ccc(NC(=S)N/N=C/c2ccc(O)cc2)cc1` ? 4.40

# get_value(readout='pIC50', item= `COc1ccc(/C=N/NC(=S)Nc2ccccc2[N+](=O)[O-])cc1` ) 3.68

For the compound `Oc1ccc(/C=N/NC(=S)Nc2ccccc2)cc1` , what pIC50 is on record? 4.15

Name the recorded pIC50 for `NNC(=S)Nc1ccc([N+](=O)[O-])cc1` . 4.14

Using the record for `COc1ccc(NC(=S)N/N=C/c2ccc(O)cc2)cc1` , report its pIC50. 4.31

# input compound: `NNC(=S)Nc1cccc([N+](=O)[O-])c1` ; wanted: its pIC50 4.10

Request the reported pIC50 associated with `O=[N+]([O-])c1ccc(NC(=S)N/N=C/c2ccc(O)c(O)c2)cc1` 3.96

###

- Test system: L929 cells
- test: Unspecific cytotoxicity assay on L929 fibroblasts (resazurin)
- Format: cell-based
- test_settings: mouse, mean ± SD, n = 3
readout_name: CC50 at 72 h (µM)
Just the number in µM, nothing appended.

Previously resolved entries follow.
smiles_notation | readout_name | unit_name | value_reported
O=[N+]([O-])c1cccc(NC(=S)N/N=C/c2ccc(O)c(O)c2)c1 | CC50 at 72 h | µM | 12
COc1ccc(/C=N/NC(=S)Nc2ccc(Cl)cc2)cc1 | CC50 at 72 h | µM | 49.7
Cc1ccc(NC(=S)N/N=C/c2ccc(O)cc2)cc1 | CC50 at 72 h | µM | 61
NNC(=S)Nc1ccc(Cl)cc1 | CC50 at 72 h | µM | 67.7
O=[N+]([O-])c1ccccc1NC(=S)N/N=C/c1ccc(O)c(O)c1 | CC50 at 72 h | µM | 21.4
Oc1ccc(/C=N/NC(=S)Nc2ccc(I)cc2)cc1O | CC50 at 72 h | µM | 20.8

From here, focus on the item given below.
Returns the measured CC50 at 72 h for the input molecule. Input: `Oc1ccc(/C=N/NC(=S)Nc2ccc(F)cc2)cc1O` 30.5
